Molecular target: DLL3 (Homo sapiens, UniProt Q9NYJ7)
Assay: SPR KD, biotinylated human DLL3 on streptavidin chip (Table 8)
Set-up: biotin (biotinylated)
Conditions: biotinylated human DLL3 on streptavidin sensor chip, 25° C., 1:1 binding model; read-out: SPR KD
pKd: −log10 of the molar value. Where a SMILES comes first, the peptide text is derived from it. Bridges are numbered along the chain shown (N, C = ends). [ ]: non-standard residue; d: D form. NMeW = CN[C@@H](Cc1c[nH]c2ccccc12)C(=O)O; Chg = N[C@H](C(=O)O)C1CCCCC1
Here, each record is paired with measured pKd data.

Worked examples follow.
>  <COMPOUND>
CSCC[C@H](NC(C)=O)C(=O)N[C@@H](Cc1c[nH]c2ccccc12)C(=O)N[C@H](C(=O)N[C@H](C(=O)N[C@H]1CSSC[C@@H](C(=O)N[C@@H](Cc2c[nH]c3ccccc23)C(=O)N2CCC[C@H]2C(N)=O)NC(=O)[C@H](CC(=O)O)NC(=O)[C@H](Cc2cnc[nH]2)NC(=O)[C@H](Cc2c[nH]c3ccccc23)NC(=O)[C@H](CC(N)=O)NC(=O)[C@H](CC(N)=O)NC1=O)C1CCCCC1)[C@@H](C)O [compound 44] (Ac-MWT[Chg]CNNWHDCWP-NH2; disulfide 5-11)

>  <ENDPOINT>
pKd

>  <OBS VALUE>
8.00 to 9.00

$$$$
>  <COMPOUND>
CC[C@H](C)[C@H](NC(=O)[C@@H](NC(=O)[C@H](Cc1c[nH]c2ccccc12)N(C)C(C)=O)[C@@H](C)O)C(=O)N[C@H]1CSSC[C@@H](C(=O)N[C@@H](Cc2c[nH]c3ccccc23)C(=O)N2CCC[C@H]2C(=O)O)NC(=O)[C@H](CC(=O)O)NC(=O)[C@H](Cc2c[nH]cn2)NC(=O)[C@H](Cc2c[nH]c3ccccc23)NC(=O)[C@H](CC(N)=O)NC(=O)[C@H](CC(N)=O)NC1=O [compound 382] (Ac-[NMeW]TICNNWHDCWP-OH; disulfide 4-10)

>  <ENDPOINT>
pKd

>  <OBS VALUE>
7.00 to 8.00

$$$$

API: the following record is the query input.
Find the recorded pKd belonging to CC[C@@H](C)[C@H](NC(=O)[C@@H](NC(=O)[C@H](Cc1c[nH]c2ccccc12)NC(C)=O)[C@@H](C)O)C(=O)N[C@H]1CSSC[C@@H](C(=O)N[C@@H](Cc2c[nH]c3ccccc23)C(=O)N2CCC[C@H]2C(N)=O)NC(=O)[C@H](CC(=O)O)NC(=O)[C@H](CCCCNC(=O)CN2CCN(CC(=O)O)CCN(CC(=O)O)CCN(CC(=O)O)CC2)NC(=O)[C@H](Cc2ccc3ccccc3c2)NC(=O)[C@H](CC(N)=O)NC(=O)C(CN2CCOCC2)NC1=O (single isomer, unassigned) [compound 307] and report it.
8.00 to 9.00

----------
Biological target: DLL3 (Homo sapiens, UniProt Q9NYJ7)
Experiment: SPR KD, biotinylated human DLL3 on streptavidin chip (Table 8)
Set-up: biotin (biotinylated)
Conditions: biotinylated human DLL3 on streptavidin sensor chip, 25° C., 1:1 binding model; read-out: SPR KD
Where a SMILES comes first, the peptide text is derived from it. Bridges are numbered along the chain shown (N, C = ends). [ ]: non-standard residue; d: D form. The star is where a group is joined. DOTA = O=C(O)CN1CCN(CC(=O)O)CCN(CC(=O)*)CCN(CC(=O)O)CC1; X1 = O=CCN1CCN(CC(=O)O)CCN(CC(=O)*)CCN(CC(=O)O)CC1; 2Nal = N[C@@H](Cc1ccc2ccccc2c1)C(=O)O; tBuAla = CC(C)(C)C[C@H](N)C(=O)O; AllylGly = C=CC[C@H](N)C(=O)O; Aze = O=C(O)[C@@H]1CCN1; Dap = NC[C@H](N)C(=O)O
Here, each record is paired with measured Kd data.

Worked examples follow.
>  <COMPOUND>
CC[C@H](C)[C@H](NC(=O)[C@@H](NC(=O)[C@H](Cc1ccc2ccccc2c1)NC(C)=O)[C@@H](C)O)C(=O)N[C@H]1CSSC[C@@H](C(=O)N[C@@H](Cc2c[nH]c3ccccc23)C(=O)N2CCC[C@H]2C(N)=O)NC(=O)[C@H](CC(=O)O)NC(=O)[C@H](Cc2cnc[nH]2)NC(=O)[C@H](Cc2c[nH]c3ccccc23)NC(=O)[C@H](CC(N)=O)NC(=O)[C@H](CC(N)=O)NC1=O [compound 26] (Ac-[2Nal]TICNNWHDCWP-NH2; disulfide 4-10)

>  <ASSAYED TARGET>
DLL3 (Homo sapiens, UniProt Q9NYJ7)

>  <Kd>
10 to 100 nM

$$$$
>  <COMPOUND>
CC[C@H](C)[C@H](NC(=O)[C@@H](NC(=O)[C@H](Cc1c[nH]c2ccccc12)NC(C)=O)[C@@H](C)O)C(=O)N[C@H]1CSSC[C@@H](C(=O)N[C@@H](Cc2c[nH]c3ccccc23)C(=O)N2CCC[C@H]2C(N)=O)NC(=O)[C@H](CC(=O)O)NC(=O)[C@H](Cc2cnc[nH]2)NC(=O)[C@H](Cc2ccc3ccccc3c2)NC(=O)[C@H](CC(N)=O)NC(=O)[C@H](CCCCNC(=O)CN2CCN(CC(=O)O)CCN(CC(=O)O)CCN(CC(=O)O)CC2)NC1=O [compound 249] (Ac-WTICK(DOTA)N[2Nal]HDCWP-NH2; disulfide 4-10)

>  <ASSAYED TARGET>
DLL3 (Homo sapiens, UniProt Q9NYJ7)

>  <Kd>
< 1 nM

$$$$
>  <COMPOUND>
CC[C@H](C)[C@H](NC(=O)[C@@H](NC(=O)[C@H](Cc1c[nH]c2ccccc12)NC(C)=O)[C@@H](C)O)C(=O)N[C@H]1CSSC[C@@H](C(=O)N[C@@H](Cc2c[nH]c3ccccc23)C(=O)N2CC[C@H]2C(N)=O)NC(=O)[C@H](CC(=O)O)NC(=O)[C@H](Cc2cnc[nH]2)NC(=O)[C@H](Cc2c[nH]c3ccccc23)NC(=O)[C@H](CC(N)=O)NC(=O)[C@H](CC(N)=O)NC1=O [compound 335] (Ac-WTICNNWHDCW[Aze]-NH2; disulfide 4-10)

>  <ASSAYED TARGET>
DLL3 (Homo sapiens, UniProt Q9NYJ7)

>  <Kd>
1 to 10 nM

$$$$
>  <COMPOUND>
CC[C@H](C)[C@H](NC(=O)[C@@H](NC(=O)[C@H](Cc1c[nH]c2ccccc12)NC(=O)[C@H](CCSC)NC(C)=O)[C@@H](C)O)C(=O)N[C@H]1CSSC[C@@H](C(=O)N[C@@H](Cc2c[nH]c3ccccc23)C(=O)N[C@H](C)C(N)=O)NC(=O)[C@H](CC(=O)O)NC(=O)[C@H](Cc2cnc[nH]2)NC(=O)[C@H](Cc2c[nH]c3ccccc23)NC(=O)[C@H](CC(N)=O)NC(=O)[C@H](CC(N)=O)NC1=O [compound 10] (Ac-MWTICNNWHDCW[dA]-NH2; disulfide 5-11)

>  <ASSAYED TARGET>
DLL3 (Homo sapiens, UniProt Q9NYJ7)

>  <Kd>
100 to 300 nM

$$$$
>  <COMPOUND>
CC[C@H](C)[C@H](NC(=O)[C@@H](NC(=O)[C@H](Cc1c[nH]c2ccccc12)NC(C)=O)[C@@H](C)O)C(=O)N[C@H]1CC(=O)NC[C@@H](C(=O)N[C@@H](Cc2c[nH]c3ccccc23)C(=O)N2CCC[C@H]2C(N)=O)NC(=O)[C@H](CC(=O)O)NC(=O)[C@H](Cc2c[nH]cn2)NC(=O)[C@H](Cc2c[nH]c3ccccc23)NC(=O)[C@H](CC(N)=O)NC(=O)[C@H](CC(N)=O)NC1=O [compound 120] (Ac-WTIDNNWHD[Dap]WP-NH2; lactam 4-10)

>  <ASSAYED TARGET>
DLL3 (Homo sapiens, UniProt Q9NYJ7)

>  <Kd>
100 to 300 nM

$$$$
>  <COMPOUND>
CC[C@@H](C)[C@H](NC(=O)[C@@H](NC(=O)[C@H](Cc1c[nH]c2ccccc12)NC(C)=O)[C@@H](C)O)C(=O)N[C@H]1CSSC[C@@H](C(=O)N[C@@H](Cc2c[nH]c3ccccc23)C(=O)N2CCC[C@H]2C(N)=O)NC(=O)[C@H](CC(=O)O)NC(=O)[C@H](CCCCNC(=O)CN2CCN(CC(=O)O)CCN(CC(=O)O)CCN(CC(=O)O)CC2)NC(=O)[C@H](Cc2ccc3ccccc3c2)NC(=O)[C@H](CC(N)=O)NC(=O)C(CN2CCOCC2)NC1=O (single isomer, unassigned) [compound 312]

>  <ASSAYED TARGET>
DLL3 (Homo sapiens, UniProt Q9NYJ7)

>  <Kd>
< 1 nM

$$$$
>  <COMPOUND>
CSCC[C@H](NC(C)=O)C(=O)N[C@@H](Cc1c[nH]c2ccccc12)C(=O)N[C@H](C(=O)N[C@@H](Cc1ccc2ccccc2c1)C(=O)N[C@H]1CSSC[C@@H](C(=O)N[C@@H](Cc2c[nH]c3ccccc23)C(=O)N2CCC[C@H]2C(N)=O)NC(=O)[C@H](CC(=O)O)NC(=O)[C@H](Cc2cnc[nH]2)NC(=O)[C@H](Cc2c[nH]c3ccccc23)NC(=O)[C@H](CC(N)=O)NC(=O)[C@H](CC(N)=O)NC1=O)[C@@H](C)O [compound 46] (Ac-MWT[2Nal]CNNWHDCWP-NH2; disulfide 5-11)

>  <ASSAYED TARGET>
DLL3 (Homo sapiens, UniProt Q9NYJ7)

>  <Kd>
10 to 100 nM

$$$$
>  <COMPOUND>
CC(=O)N[C@@H](Cc1c[nH]c2ccccc12)C(=O)N[C@H](C(=O)N[C@@H](CC(C)(C)C)C(=O)N[C@H]1CSSC[C@@H](C(=O)N[C@@H](Cc2c[nH]c3ccccc23)C(=O)N2CCC[C@H]2C(N)=O)NC(=O)[C@H](CC(=O)O)NC(=O)[C@H](CCCCNC(=O)CN2CCN(CC(=O)O)CCN(CC=O)CCN(CC(=O)O)CC2)NC(=O)[C@H](Cc2ccc3ccccc3c2)NC(=O)[C@H](CC(N)=O)NC(=O)[C@H](CC(N)=O)NC1=O)[C@@H](C)O [compound 316] (Ac-WT[tBuAla]CNN[2Nal]K(X1)DCWP-NH2; disulfide 4-10)

>  <ASSAYED TARGET>
DLL3 (Homo sapiens, UniProt Q9NYJ7)

>  <Kd>
< 1 nM

$$$$

Find the recorded Kd belonging to CC[C@H](C)[C@H](NC(=O)[C@@H](NC(=O)[C@H](Cc1c[nH]c2ccccc12)NC(C)=O)[C@@H](C)O)C(=O)N[C@H]1CC=CC[C@@H](C(=O)N[C@@H](Cc2c[nH]c3ccccc23)C(=O)N2CCC[C@H]2C(N)=O)NC(=O)[C@H](CC(=O)O)NC(=O)[C@H](Cc2cnc[nH]2)NC(=O)[C@H](Cc2c[nH]c3ccccc23)NC(=O)[C@H](CC(N)=O)NC(=O)[C@H](CC(N)=O)NC1=O [compound 331] (Ac-WTI[AllylGly]NNWHD[AllylGly]WP-NH2; staple 4-10) and report it.
100 to 300 nM

These measurements were taken from patent US20250049970A1.
